test system: SRPK2; conditions: concentration: 1 μM,replicates: in singlicate; n = 1;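 further: KINOMEscan kinase panel screen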
endpoint.name: %Inh (%)
Give bare numbers, in %.

Illustrative cases are given below, each with its answer.
1. CCN(CC)CCOc1ccc(Nc2ncc3cc(-c4c(Cl)cccc4Cl)c(=O)n(C)c3n2)cc1 70
2. Cc1occc1-c1nc(N)c(OC[C@@H](N)Cc2c[nH]c3ccccc23)cc1-c1cc2c(C)n[nH]c2cn1 0
3. CC(C)N1C(=O)Cc2cc(Nc3ncc(C(F)(F)F)c(NCc4cccc(S(C)(=O)=O)c4)n3)ccc21 3

Please report %Inh for every entry that follows.
1. C[C@@H](Oc1cc(-c2cnn(C3CCNCC3)c2)cnc1N)c1c(Cl)ccc(F)c1Cl
2. Cc1ccc(-n2nc(C(C)(C)C)cc2NC(=O)Nc2ccc(OCCN3CCOCC3)c3ccccc23)cc1
3. Nc1nc(Nc2ccccc2)cc(-c2ccc3c(N)n[nH]c3c2)n1
4. CN(C)CCOc1ccc(-c2cc(-c3c[nH]nc3-c3ccccn3)ccn2)cc1
5. O=C(NCCCN1CCOC1=O)c1cnc(NCc2cc(Cl)ccc2Cl)nc1NC1CCCC1

1: 0; 2: 0; 3: 2; 4: 0; 5: 0

====

system: STK39; conditions: concentration: 1 μM,replicates: in singlicate; n = 1
hey, just use YES if measured %Inh is less than 3%, otherwise NO

molecule	system.tested	qualitative.label
Cc1n[nH]c2ccc(-c3cc(OC[C@@H](N)Cc4ccccc4)cnc3-c3ccoc3)cc12.O=C(O)C(F)(F)F.O=C(O)C(F)(F)F	STK39	YES
Cl.Cl.Nc1nc(-c2ccc3c(N)n[nH]c3c2)cc(N2CCCC(NC(=O)c3ccccc3)C2)n1 (centres unmarked)	STK39	YES

In plain terms, does O=C(NCCCN1CCOC1=O)c1cnc(NCc2cc(Cl)ccc2Cl)nc1NC1CCCC1 come in under 3% for %Inh? YES

In plain terms, does CCN(CC)CCOc1ccc(Nc2ncc3cc(-c4c(Cl)cccc4Cl)c(=O)n(C)c3n2)cc1 come in under 3% for %Inh? NO

In plain terms, does NC(=O)c1cc(-c2ccccc2)cc2c(C3CCNCC3)c[nH]c12 come in under 3% for %Inh? NO

In plain terms, does C[C@@H]1CCN(C(=O)CC#N)C[C@@H]1N(C)c1ncnc2[nH]ccc12 come in under 3% for %Inh? YES

In plain terms, does C[C@H]1Oc2cc(cnc2N)-c2c(nn(C)c2C#N)CN(C)C(=O)c2ccc(F)cc21 come in under 3% for %Inh? YES

In plain terms, does Cc1ccc2c(-c3ccncc3)c(-c3ccc(F)cc3)nn2c1.Cl come in under 3% for %Inh? NO

In plain terms, does C=CC(=O)Nc1cc2c(Nc3ccc(F)c(Cl)c3)ncnc2cc1OCCCN1CCOCC1 come in under 3% for %Inh? NO

In plain terms, does Cl.Cl.NC[C@H](CC1CCCCC1)NC(=O)c1cc(Br)c(-c2ccnc3[nH]ccc23)s1 come in under 3% for %Inh? NO

In plain terms, does Nc1nc(Nc2ccccc2)cc(-c2ccc3c(N)n[nH]c3c2)n1 come in under 3% for %Inh? YES

In plain terms, does COc1ccc(C[C@@H](CN)NC(=O)c2cc(Br)c(-c3ccnc4[nH]ccc34)s2)cc1.Cl.Cl come in under 3% for %Inh? NO

In plain terms, does CCN(CC)CCCCNc1ncc2cc(-c3c(Cl)cccc3Cl)c(NC(=O)NC(C)(C)C)nc2n1 come in under 3% for %Inh? YES

====

system: LYN; settings: concentration: 1 μM,replicates: in singlicate; n = 1
Each entry gets class 0 if its %Inh stays under 9%, and class 1 if its %Inh is 9% or above.

1. Cc1occc1-c1nc(N)c(OC[C@@H](N)Cc2c[nH]c3ccccc23)cc1-c1cc2c(C)n[nH]c2cn1 class 0
2. COc1ccc(C[C@@H](CN)NC(=O)c2cc(Br)c(-c3ccnc4[nH]ccc34)s2)cc1.Cl.Cl class 0
3. C[C@H]1Oc2cc(cnc2N)-c2c(nn(C)c2C#N)CN(C)C(=O)c2ccc(F)cc21 class 1

Now consider a different molecule.
Determine whether this molecule has %Inh no lower than 9%: C[C@@H]1CCN(C(=O)CC#N)C[C@@H]1N(C)c1ncnc2[nH]ccc12 class 0

====

tested on: SIK; conditions: concentration: 1 μM,replicates: in singlicate; n = 1
Record form. Attribute: %Inh. Fill in for each entry.
Answers without a unit are incomplete; give the number and then its unit.

molecule	%Inh
CN(C)CC(O)COc1ccc(Nc2nccc(-c3cnn4nc(N5CCOCC5)ccc34)n2)cc1 (stereo not shown)	31%
Cc1cc2cn[nH]c2cc1-c1cccc2c(N)c(C(N)=O)nnc12	100%
Cc1cc(C(=O)Nc2ccc(Oc3ccc4nc(NC(=O)C5CC5)cn4n3)cc2)nn1-c1ccccc1	27%

Kindly consider the entry below.
Cl.Cl.Nc1nc(-c2ccc3c(N)n[nH]c3c2)cc(N2CCCC(NC(=O)c3ccccc3)C2)n1 (stereo not shown) tested on SIK gave %Inh: 0%

====

test system: ADCK3; construct: gene CABC1; conditions: concentration: 1 μM,replicates: in singlicate; n = 1
Record form. Attribute: %Inh. Fill in for each entry.
One number for each entry, in %.

compound	unit.symbol	%Inh
NC(=O)c1cc(-c2ccccc2)cc2c(C3CCNCC3)c[nH]c12 [GSK301362]	%	0
Cl.Oc1cc(-c2nc(-c3ccccc3)[nH]c2-c2ccncc2)ccc1Cl [SB-386023]	%	0
Cc1occc1-c1nc(N)c(OC[C@@H](N)Cc2c[nH]c3ccccc23)cc1-c1cc2c(C)n[nH]c2cn1 [GSK1660450]	%	16

Kindly consider the entry below.
The measured %Inh associated with Cc1cc(C(=O)Nc2ccc(Oc3ccc4nc(NC(=O)C5CC5)cn4n3)cc2)nn1-c1ccccc1 reads 8

====

system: DYRK2; details: concentration: 1 μM,replicates: in singlicate; n = 1
Each entry gets 0 if its %Inh stays under 20%, and 1 if its %Inh is 20% or above.

# count of solved cases: 3
molecule	qualitative.label
CC(C)Nc1cc(-c2ccc3c(N)n[nH]c3c2)nc(N)n1	1
Cc1ccc(-n2nc(C(C)(C)C)cc2NC(=O)Nc2ccc(OCCN3CCOCC3)c3ccccc23)cc1	0
COc1ccc(C[C@@H](CN)NC(=O)c2cc(Br)c(-c3ccnc4[nH]ccc34)s2)cc1.Cl.Cl	1

Determine whether this molecule has %Inh no lower than 20%: Cc1ccc2c(-c3ccncc3)c(-c3ccc(F)cc3)nn2c1.Cl 0

Determine whether this molecule has %Inh no lower than 20%: Cl.Cl.NC[C@H](Cc1ccc(C(F)(F)F)cc1)NC(=O)c1cc(Br)c(-c2ccnc3[nH]ccc23)s1 1

Determine whether this molecule has %Inh no lower than 20%: O=C(NCCNc1ccnc(NCc2ccc(F)cc2)n1)c1cc2ccccc2s1 0

Determine whether this molecule has %Inh no lower than 20%: C[C@H]1Oc2cc(cnc2N)-c2c(nn(C)c2C#N)CN(C)C(=O)c2ccc(F)cc21 0

====

test system: CSK; conditions: concentration: 1 μM,replicates: in singlicate; n = 1
endpoint.name: %Inh
Answers without a unit are incomplete; give the number and then its unit.

Illustrative cases are given below, each with its answer.
compound	%Inh
Cc1ccc(-n2nc(C(C)(C)C)cc2NC(=O)Nc2ccc(OCCN3CCOCC3)c3ccccc23)cc1	3%
Cc1ccc2c(-c3ccncc3)c(-c3ccc(F)cc3)nn2c1.Cl	0%
O=C(NCCNc1ccnc(NCc2ccc(F)cc2)n1)c1cc2ccccc2s1	68%

Please report %Inh for every entry that follows.
1. CN(C)CCOc1ccc(-c2cc(-c3c[nH]nc3-c3ccccn3)ccn2)cc1
2. CNC(=O)c1ccccc1Sc1ccc2c(/C=C/c3ccccn3)n[nH]c2c1
3. CN(C)CC(O)COc1ccc(Nc2nccc(-c3cnn4nc(N5CCOCC5)ccc34)n2)cc1 (stereo not drawn)
4. Nc1nc(Nc2ccccc2)cc(-c2ccc3c(N)n[nH]c3c2)n1

88%
3%
24%
0%

Please report %Inh for every entry that follows.
1. CC(C)N1C(=O)Cc2cc(Nc3ncc(C(F)(F)F)c(NCc4cccc(S(C)(=O)=O)c4)n3)ccc21
2. CC(C)Nc1cc(-c2ccc3c(N)n[nH]c3c2)nc(N)n1

14%
0%

====

system: PIM1; conditions: concentration: 1 μM,replicates: in singlicate; n = 1
Record form. Attribute: %Inh. Fill in for each entry.
Give bare numbers, in %.

Illustrative cases are given below, each with its answer.
1. Cl.Cl.NC[C@H](Cc1ccc(C(F)(F)F)cc1)NC(=O)c1cc(Br)c(-c2ccnc3[nH]ccc23)s1 35
2. CCN(CC)CCCCNc1ncc2cc(-c3c(Cl)cccc3Cl)c(NC(=O)NC(C)(C)C)nc2n1 0

Please report %Inh for every entry that follows.
1. Cc1occc1-c1nc(N)c(OC[C@@H](N)Cc2c[nH]c3ccccc23)cc1-c1cc2c(C)n[nH]c2cn1
2. Cc1cc2cn[nH]c2cc1-c1cccc2c(N)c(C(N)=O)nnc12

97.3
0
